Attribute: half-life
# protocol: Half life in Sprague-Dawley rat at 1 mg/kg, iv
# Type: ADME, organism-based
# conditionSet: in vivo
measuredProperty: half-life (min)

[[record]]
compoundstructure = "Cc1cc(C)nc(N2C[C@H]3CN(C(=O)c4ccc(F)cc4-n4nccn4)C[C@H]3C2)n1"
unitofmeasurement = "min"
valuereported = 22.2

[[record]]
compoundstructure = "Cc1cc(C)nc(N2C[C@H]3CN(C(=O)c4ccccc4-n4nccn4)C[C@H]3C2)n1"
unitofmeasurement = "min"
valuereported = 16.2

[[record]]
compoundstructure = "Cc1cc(C)nc(N2C[C@H]3CN(C(=O)c4c(F)cccc4-n4nccn4)C[C@H]3C2)n1"
unitofmeasurement = "min"
valuereported = 18

[[record]]
compoundstructure = "Cc1cc(C)nc(N2C[C@H]3CN(C(=O)c4cccc(F)c4-n4nccn4)C[C@H]3C2)n1"
unitofmeasurement = "min"
valuereported = 12

[[record]]
compoundstructure = "Cc1cc(C)nc(N2C[C@H]3CN(C(=O)c4ccccc4-c4ncn[nH]4)C[C@H]3C2)n1"
unitofmeasurement = "min"
valuereported = 22.8

